# System: adenylate cyclase in SaOS-2/B10 cells
# testName: Stimulation of adenylate cyclase activity in SaOS-2/B10 cells
# Assay type: cell-based
# experimentalParameters: 1 mM IBMX, 5 min incubation, read-out: EC50 (half maximal stimulation of adenylate cyclase)
# Protocol: The adenylate cyclase activity induced by each of the tested polypeptides of the invention was also measured in SaOS-2/B 10 cells as described previously (Rodain et al., J. Clin. Invest. (1983) 72,1511; Goldman, et al., Endocrinology (1988) 123, 1468). […] The radioactivity was counted in a scintillation counter (Liquid scintillation counter 2200CA, PACKARD, Downers Grove, Ill.).
No end group written: not given here.
readoutLabel: log10(EC50) (log10 of the value in nM)
Response schema: value (number) is log10 of EC50 in units of nM.

// solved cases for log10(EC50) follow
AVSEHQLLHDKGKSIQDLRRREFLEKLIEKIHTA-NH2 [SEQ ID NO: 12, [Glu^22,25,29,Lys^26,30]hPTHrP(1–34)NH2]: -0.38
SVSEIQLMHNLGKHLNSMERVELLRKLLQDLHNF-NH2 [SEQ ID NO: 7, [Leu^23,27,31]hPTH(1–34)NH2]: 0.05
SVSEIQLMHNLGKHLNSMERVEWLEKKLEKVHNF-NH2 [SEQ ID NO: 6, [Glu^25,29,Lys^30]hPTH(1–34)NH2]: 1.41

Short answer for AVSEHQLLHDKGKSIQDLRRRELLEKLLELLHTA-NH2 [SEQ ID NO: 10] : log10(EC50) was 0.70

Short answer for SVSEIQLMHNLGKHLNSMERVELLEKLLEKLHNF-NH2 [SEQ ID NO: 5] : log10(EC50) was 1.38

Short answer for AVSEHQLLHDKGKSIQDLRRRFLLHHLLAELHTA-NH2 [SEQ ID NO: 11, [Leu^23,28,31]hPTHrP(1–34)NH2] : log10(EC50) was -0.13
